Listed compounds paired with reported melting point
property measured: melting point

- structure smiles: "CCOC(=O)C=Cc1ccc(F)cc1F"
  property measured: "melting point"
  observed result: "40 to 40.5 °C"
- structure smiles: "O=C(OC1CCCCC1)c1ncn2c1[C@@H]1CCN1C(=O)c1c(I)cccc1-2"
  property measured: "melting point"
  observed result: "124 to 125 °C"
- structure smiles: "CCCN1CC(c2ccc(S(C)(=O)=O)cc2)=C(c2ccc(C)cc2)C1=O"
  property measured: "melting point"
  observed result: "161 to 163 °C"
- structure smiles: "NNC(=O)Nc1nccs1"
  property measured: "melting point"
  observed result: "166 to 167 °C"
- structure smiles: "CCOCc1nc2c(N)nc3cc(N4CCOC4=O)cnc3c2n1CC(C)C"
  property measured: "melting point"
  observed result: "174 to 176 °C"
- structure smiles: "Cc1cc(=O)n2c3c(cc(C(O)(C(F)(F)Cl)C(F)(F)Cl)cc13)CC2"
  property measured: "melting point"
  observed result: "256 to 257 °C"
- structure smiles: "CC(C)(C)c1cc(Cn2c(=S)sc3ccccc32)cc(C(C)(C)C)c1O"
  property measured: "melting point"
  observed result: "148 to 150 °C"
- structure smiles: "CCCn1c2ccccc2c2c3c(nc(C)c21)CC(C)(C)CC3=O"
  property measured: "melting point"
  observed result: "123 to 125 °C"
- structure smiles: "Cn1c2ccc(F)cc2c(=O)n2nc(C(=O)O)cc12"
  property measured: "melting point"
  observed result: "295 °C"
- structure smiles: "Clc1ncc(OCc2ccsc2)cn1"
  property measured: "melting point"
  observed result: "73 to 76 °C"
- structure smiles: "CC(C)(C)OC(=O)N1C(=O)[C@@H](O[Si](C)(C)C)[C@H]1c1ccccc1"
  property measured: "melting point"
  observed result: "85 to 88 °C"

###

property measured: melting point

- compound: "CCN(CC)OC(=Nc1c(C(C)C)cccc1C(C)C)Nc1c(C(C)C)cccc1C(C)C"
  observed result: "113 to 116 °C"
- compound: "Cc1nc(C(=O)NN)c2n1-c1ccc(Cl)cc1C(c1ccccc1)NC2 (stereo not given)"
  observed result: "225 to 230 °C"
- compound: "NS(=O)(=O)c1cc(CO)cc(N2CCCC2)c1Oc1ccccc1"
  observed result: "155 °C"
- compound: "CCOC(=O)c1ccc2cc(-c3cccc4ccccc34)ccn2c1=O"
  observed result: "245 to 247 °C"
- compound: "CCOc1nn(Cc2ccc(OCc3ccc4ccccc4n3)nc2)cc1CCC(=O)O"
  observed result: "133 to 134 °C"
- compound: "CCCCn1c(=O)c2cc(C(=O)OCC)cn2c2cc(Cl)c(Cl)cc21"
  observed result: "179 to 180 °C"
- compound: "O=C(c1ccc(F)cc1Cl)N1Cc2cccn2Cc2ccccc21"
  observed result: "110 to 112 °C"
- compound: "COc1c(Cl)ccc(-c2nc(C(=O)OCc3ccccc3)c(Cl)c(N)c2F)c1F"
  observed result: "132 to 133 °C"
- compound: "CCCc1cc2cc(NC(=O)OCC)ccc2o1"
  observed result: "69 to 70 °C"
- compound: "CCN(CC)S(=O)(=O)c1cc(Cl)c(Cl)c(Cl)c1SCSC#N"
  observed result: "83 to 85 °C"

###

property measured: melting point

- compound: "COc1cccc([C@H]2O[C@H](CC(=O)N[C@H](CCSC)C(=O)O)C(=O)N(CC(C)(C)C)c3ccc(Cl)cc32)c1OC"
  property measured: "melting point"
  observed result: "161 to 162 °C"
- compound: "N#Cc1c(-c2cccc(N)c2)cc(-c2ccccc2O)nc1NC(=O)c1ccc(Cl)s1"
  property measured: "melting point"
  observed result: "259 to 260 °C"
- compound: "CCCc1nn(-c2ccc(C(F)(F)F)cn2)cc1CCCOc1c(C#N)cccc1CC(=O)O"
  property measured: "melting point"
  observed result: "146 to 147 °C"
- compound: "CC(=O)NC1C(Oc2nc[nH]c2C(N)=O)OC(COC(C)=O)C(OC(C)=O)C1OC(C)=O (stereo not drawn)"
  property measured: "melting point"
  observed result: "133 to 135 °C"
- compound: "COc1ccc(Cc2cc(S)ccc2OC)cc1"
  property measured: "melting point"
  observed result: "78 °C"
- compound: "CS(=O)c1coc2cc(NS(C)(=O)=O)c(Oc3ccccc3)cc2c1=O (stereo not drawn)"
  property measured: "melting point"
  observed result: "> 250 °C"
- compound: "Cc1ccccc1Cn1c(=O)c2c(N3CCN(C)CC3)cc(Cl)cc2n(Cc2ccccc2)c1=O"
  property measured: "melting point"
  observed result: "92 to 95 °C"
- compound: "CN1C(=O)CC(c2ccc(O)cc2)C1C(O)c1ccc(-c2ccccc2)s1 (stereo not drawn)"
  property measured: "melting point"
  observed result: "248 to 249 °C"
- compound: "O=C1CC2(C(=O)N1)C(=O)N1CCCc3cccc2c31 (stereo not drawn)"
  property measured: "melting point"
  observed result: "253 to 255 °C"
- compound: "CC(=O)Nc1c(-c2ccc(Cl)cc2)c2ccccc2n1C"
  property measured: "melting point"
  observed result: "196 to 197 °C"
- compound: "CCOCCNC(=O)c1cccc(-c2cccc3cc(Cc4cc(F)cc(Cl)c4)sc23)c1"
  property measured: "melting point"
  observed result: "79 to 80 °C"
- compound: "CC1=CCc2c1sc1c2CN(c2ccccc2Cl)CC2N(C(=O)O)CCN12 (stereo not drawn)"
  property measured: "melting point"
  observed result: "160 to 162 °C"
- compound: "CC(C)(C)c1csc(-c2cc3cc(OCc4ccccc4Cc4nnn[nH]4)ccc3o2)n1"
  property measured: "melting point"
  observed result: "80 to 84 °C"
- compound: "Cc1ccc2c(c1C)N(c1ncnc3cnccc13)CC2"
  property measured: "melting point"
  observed result: "248 °C"
- compound: "CC(C)(C)OC(=O)N1CCN(O)CC1"
  property measured: "melting point"
  observed result: "95 to 97 °C"
- compound: "CN1CC[C@@H](c2c(O)cc(O)c3c(=O)cc(-c4ccccc4I)oc23)[C@@H]1CO"
  property measured: "melting point"
  observed result: "233 to 235 °C"
- compound: "COc1ccc2c(c1)CN(C(=O)OCc1ccccc1)CC(=O)N2"
  property measured: "melting point"
  observed result: "138 °C"
- compound: "Cc1c(Cc2ccccc2)c(=O)oc2cc(OCc3nnn[nH]3)cc(OCc3nnn[nH]3)c12"
  property measured: "melting point"
  observed result: "229 to 233 °C"
- compound: "O=C(/C=C/[C@@H]1[C@H]2CC(=O)O[C@H]2C[C@H]1OC(=O)c1ccc(-c2ccccc2)cc1)COc1cccc(C(F)(F)F)c1"
  property measured: "melting point"
  observed result: "115 to 116 °C"
- compound: "CC(C)(CC(=O)Nc1ccc2oc(-c3ccc4ccc(Cl)cc4n3)cc2c1)C(=O)O"
  property measured: "melting point"
  observed result: "228 to 230 °C"
- compound: "CCC(CC)(CCc1ccc(Cl)cc1)NC(=O)n1nc(N(C)C)n(N=C(C)CC(C)C)c1=O"
  property measured: "melting point"
  observed result: "121 °C"
- compound: "Cc1nc(-n2cnn(CC3CC3)c2=O)sc1C(=O)NCc1cocn1"
  property measured: "melting point"
  observed result: "157 to 158 °C"
- compound: "C=Cc1ccc(CSC(CC(=O)O)C(=O)O)cc1 (stereo not drawn)"
  property measured: "melting point"
  observed result: "173 to 175 °C"
- compound: "CCC(=O)NCC=C1CCc2ccc3nn(C)cc3c21"
  property measured: "melting point"
  observed result: "185 to 187 °C"
- compound: "CCc1c(CC(C)(C)C(=O)O)ccc2c1OCO2"
  property measured: "melting point"
  observed result: "73 to 74 °C"
- compound: "COC(=O)c1cc(-c2ccc3cc4c(cc3c2)C(C)(C)CCC4(C)C)c[nH]1"
  property measured: "melting point"
  observed result: "140 to 143 °C"
- compound: "CCCCCCCCCCCCCC[C@]1(C)OO[C@@H]2C[C@H]1CC(=O)[C@@H]2C"
  property measured: "melting point"
  observed result: "46 °C"
- compound: "CC(C)c1nc(CN)n(C)c1Sc1cc(Cl)cc(Cl)c1"
  property measured: "melting point"
  observed result: "86 to 87 °C"
- compound: "CCCCn1c(=O)n2cnnc2c2[nH]c(-c3cc(S(=O)(=O)N4CC(CN(C)C)C4)ccc3OCCC)nc21"
  property measured: "melting point"
  observed result: "198 °C"
- compound: "Cc1cc(O)c2c(ccc3nc(-c4ccco4)[nH]c32)n1"
  property measured: "melting point"
  observed result: "280 to 282 °C"
- compound: "Cn1cccc1C(=O)Nc1cccc(C=CC(=O)N2CC(CCl)c3ccc([N+](=O)[O-])cc32)c1 (stereo not drawn)"
  property measured: "melting point"
  observed result: "215 °C"
- compound: "Cc1oc(-c2ccccc2)nc1CCOc1ccc(CCCBr)cc1"
  property measured: "melting point"
  observed result: "78 to 79 °C"
- compound: "O=C(OCCOCCO)c1ccc(O)c(Cl)c1"
  property measured: "melting point"
  observed result: "77.5 to 78 °C"
- compound: "CN(C)CCNC(=O)Cc1ccc(NC(=O)OCc2ccccc2)cc1"
  property measured: "melting point"
  observed result: "126 to 127 °C"
- compound: "CCCn1c(CC)c2c3c(cccc31)C1CC(NC(=S)N(CC)CC)CN(C)C1C2 (stereo not drawn)"
  property measured: "melting point"
  observed result: "173 to 175 °C"
- compound: "O=C(Nc1ccc(CNc2nc(NC3CC3)nc3ccccc23)cc1)c1ccc(F)cc1"
  property measured: "melting point"
  observed result: "189 °C"
- compound: "CCOC(=O)c1c(CN(CC)CC)nc2sc3ccncc3c2c1-c1ccc(OC)c(OC)c1"
  property measured: "melting point"
  observed result: "141 to 142 °C"
- compound: "OC(CCCl)COc1ccc(F)cc1 (stereo not drawn)"
  property measured: "melting point"
  observed result: "53 to 55 °C"

Just for reference, a melting point compilation (Tetko et al.; mined from patent text by program, amines drawn as free bases though some values may be those of a salt) is where these values come from.
